The measured values listed here are drawn from patent US6914045B2.

System: Enterococcus sp.
ASSAY NOTES: in vitro antibacterial evaluation, MIC by broth dilution
Assay type: cell-based
RUN CONDITIONS: broth dilution, inoculum 5×10^5 CFU/mL, 18 hours at 35° C.; strain GC 2243
# MIC Enterococcus faecium (GC 2243) values compiled below
MEASUREMENT NAME: MIC Enterococcus faecium (GC 2243) (mg/L)

molecule="CC(c1ccccc1)C1NC(=O)CNC(=O)C(CO)NC(=O)C(CC2CNC(=N)N2C2OC(CO)C(O)C(O)C2O)NC(=O)C(CC2CNC(=N)N2)NC(=O)C(Cc2ccc(OC3OC(CO)C(OC4OC5COC(c6ccc(OCc7ccccc7)cc6)OC5C(O)C4O)C(O)C3O)cc2)NC1=O (stereo not shown) [Example 191]" recorded_measurement=8
molecule="CC(c1ccccc1)C1NC(=O)CNC(=O)C(CO)NC(=O)C(C(O)C2CNC(=N)N2C2OC(CO)C(O)C(O)C2O)NC(=O)C(C(O)C2CNC(=N)N2)NC(=O)C(Cc2ccc(OC3OC(CO)C(OC4OC5COC6(CCCCC6C)OC5C(O)C4O)C(O)C3O)cc2)NC1=O (stereo not shown) [Example 204]" recorded_measurement=16
molecule="CC(C1CCCCC1)C1NC(=O)CNC(=O)C(CO)NC(=O)C(C(O)C2CNC(=N)N2C2OC(CO)C(O)C(O)C2O)NC(=O)C(C(O)C2CNC(=N)N2)NC(=O)C(Cc2ccc(OC3OC(CO)C(OC4OC5COC6(OC5C(O)C4O)C4CC5CC(C4)CC6C5)C(O)C3O)cc2)NC1=O (stereo not shown) [Example 221]" recorded_measurement=2
molecule="COc1ccc2cc(C3OCC4OC(OC5C(CO)OC(Oc6ccc(CC7NC(=O)C(C(C)c8ccccc8)NC(=O)CNC(=O)C(CO)NC(=O)C(CC8CNC(=N)N8C8OC(CO)C(O)C(O)C8O)NC(=O)C(CC8CNC(=N)N8)NC7=O)cc6)C(O)C5O)C(O)C(O)C4O3)ccc2c1 (stereo not shown) [Example 190]" recorded_measurement=32

====

System: Staphylococcus sp.
ASSAY NOTES: in vitro antibacterial evaluation, MIC by broth dilution
Type: cell-based
RUN CONDITIONS: broth dilution, 18 hours at 35° C.; strain GC 3051
Numbered stars: 1 amine (or outer) side, 2 acyl side, 3 side chain; on linkers, the order of the positions; unused ones are H or OH. Square brackets hold non-standard residues; d marks the D form. Peptide text beside a SMILES is read from it. ξ: configuration not given here. X1 = N=C1NCC(C(O)C(N[*:1])C(=O)[*:2])N1C1OC(CO)C(O)C(O)C1O; ξEnduracididine(βξ-OH,4'ξ) = N=C1NCC(C(O)C(N)C(=O)O)N1
MEASUREMENT NAME: MIC Staphylococcus aureus (GC 3051) (µg/mL)

compound="CC(c1ccccc1)C1NC(=O)CNC(=O)C(CO)NC(=O)C(C(O)C2CNC(=N)N2C2OC(CO)C(O)C(O)C2O)NC(=O)C(C(O)C2CNC(=N)N2)NC(=O)C(Cc2ccc(OC3OC(CO)C(OC4OC5COC(c6ccc7c(c6)OCCO7)OC5C(O)C4O)C(O)C3O)cc2)NC1=O (centres unmarked) [Example 149]" tgt="Staphylococcus sp." measurement_name="MIC Staphylococcus aureus (GC 3051)" value_qualifier== recorded_measurement=2
compound="CC(C)=CCCC(C)=CCOc1ccc(C2OCC3OC(OC4C(CO)OC(Oc5ccc(CC6NC(=O)C(C(C)c7ccccc7)NC(=O)CNC(=O)C(CO)NC(=O)C(C(O)C7CNC(=N)N7C7OC(CO)C(O)C(O)C7O)NC(=O)C(C(O)C7CNC(=N)N7)NC6=O)cc5)C(O)C4O)C(O)C(O)C3O2)cc1 (centres unmarked) [Example 183]" tgt="Staphylococcus sp." measurement_name="MIC Staphylococcus aureus (GC 3051)" value_qualifier== recorded_measurement=2
compound="CC(c1ccccc1)C1NC(=O)CNC(=O)C(CO)NC(=O)C(C(O)C2CNC(=N)N2C2OC(CO)C(O)C3OC(C)(C)OC32)NC(=O)C(C(O)C2CNC(=N)N2)NC(=O)C(Cc2ccc(OC3OC(CO)C(OC4OC5COC(C)(C)OC5C5OC(C)(C)OC45)C4OC(C)(C)OC34)cc2)NC1=O (centres unmarked) [Example 229b]" tgt="Staphylococcus sp." measurement_name="MIC Staphylococcus aureus (GC 3051)" value_qualifier=> recorded_measurement=128
compound="CC(c1ccccc1)C1NC(=O)CNC(=O)C(CO)NC(=O)C(C(O)C2CNC(=N)N2C2OC(CO)C(O)C(O)C2O)NC(=O)C(C(O)C2CNC(=N)N2)NC(=O)C(Cc2ccc(OC3OC(CO)C(OC4OC5COC(c6ccc(S(C)(=O)=O)cc6)OC5C(O)C4O)C(O)C3O)cc2)NC1=O (centres unmarked) [Example 157]" tgt="Staphylococcus sp." measurement_name="MIC Staphylococcus aureus (GC 3051)" value_qualifier== recorded_measurement=16
compound="Cc1ccc(COCC2OC(OC3C(CO)OC(Oc4ccc(CC5NC(=O)C(C(C)c6ccccc6)NC(=O)CNC(=O)C(CO)NC(=O)C(C(O)C6CNC(=N)N6C6OC(CO)C(O)C(O)C6O)NC(=O)C(C(O)C6CNC(=N)N6)NC5=O)cc4)C(O)C3O)C(O)C(O)C2O)cc1 (centres unmarked) [Example 234]" tgt="Staphylococcus sp." measurement_name="MIC Staphylococcus aureus (GC 3051)" value_qualifier== recorded_measurement=2
compound="Cc1ccc(CC2OCC3OC(OC4C(CO)OC(Oc5ccc(CC6NC(=O)C(C(C)c7ccccc7)NC(=O)CNC(=O)C(CO)NC(=O)C(C(O)C7CNC(=N)N7C7OC(CO)C(O)C(O)C7O)NC(=O)C(C(O)C7CNC(=N)N7)NC6=O)cc5)C(O)C4O)C(O)C(O)C3O2)cc1 (centres unmarked) [Example 119]" tgt="Staphylococcus sp." measurement_name="MIC Staphylococcus aureus (GC 3051)" value_qualifier== recorded_measurement=1
compound="COc1cc(C2OCC3OC(OC4C(CO)OC(Oc5ccc(CC6NC(=O)C(C(C)c7ccccc7)NC(=O)CNC(=O)C(CO)NC(=O)C(C(O)C7CNC(=N)N7C7OC(CO)C(O)C(O)C7O)NC(=O)C(C(O)C7CNC(=N)N7)NC6=O)cc5)C(O)C4O)C(O)C(O)C3O2)cc([N+](=O)[O-])c1O (centres unmarked) [Example 169]" tgt="Staphylococcus sp." measurement_name="MIC Staphylococcus aureus (GC 3051)" value_qualifier== recorded_measurement=32
compound="COc1ccc(COCC2OC(OC3C(CO)OC(Oc4ccc(CC5NC(=O)C(C(C)c6ccccc6)NC(=O)CNC(=O)C(CO)NC(=O)C(C(O)C6CNC(=N)N6C6OC(CO)C(O)C(O)C6O)NC(=O)C(C(O)C6CNC(=N)N6)NC5=O)cc4)C(O)C3O)C(O)C(O)C2O)cc1F (centres unmarked) [Example 237]" tgt="Staphylococcus sp." measurement_name="MIC Staphylococcus aureus (GC 3051)" value_qualifier== recorded_measurement=2
compound="COc1cc(C2OCC3OC(OC4C(CO)OC(Oc5ccc(CC6NC(=O)C(C(C)c7ccccc7)NC(=O)CNC(=O)C(CO)NC(=O)C(C(O)C7CNC(=N)N7C7OC(CO)C(O)C(O)C7O)NC(=O)C(C(O)C7CNC(=N)N7)NC6=O)cc5)C(O)C4O)C(O)C(O)C3O2)ccc1[N+](=O)[O-] (centres unmarked) [Example 153]" tgt="Staphylococcus sp." measurement_name="MIC Staphylococcus aureus (GC 3051)" value_qualifier== recorded_measurement=2
compound="CC(c1ccccc1)C1NC(=O)CNC(=O)C(CO)NC(=O)C(C(O)C2CNC(=N)N2C2OC(CO)C(O)C(O)C2O)NC(=O)C(C(O)C2CNC(=N)N2)NC(=O)C(Cc2ccc(OC3OC(CO)C(OC4OC(CO)C(O)C(O)C4O)C(O)C3O)c(N)c2)NC1=O (centres unmarked) [Example 287]" tgt="Staphylococcus sp." measurement_name="MIC Staphylococcus aureus (GC 3051)" value_qualifier=> recorded_measurement=64
compound="CC(c1ccccc1)C1NC(=O)CNC(=O)C(CO)NC(=O)C(CC2CNC(=N)N2C2OC(CO)C(O)C(O)C2O)NC(=O)C(CC2CNC(=N)N2)NC(=O)C(Cc2ccc(OC3OC(CO)C(OC4OC(COCc5ccc(OCc6ccccc6)cc5)C(O)C(O)C4O)C(O)C3O)cc2)NC1=O (centres unmarked) [Example 246]" tgt="Staphylococcus sp." measurement_name="MIC Staphylococcus aureus (GC 3051)" value_qualifier== recorded_measurement=4
compound="N=C1NCC(C(O)C2NC(=O)C(Cc3ccc(O)cc3)NC(=O)C(Cc3ccccc3)NC(=O)CNC(=O)C(CO)NC(=O)C(C(O)C3CNC(=N)N3C3OC(CO)C(O)C(O)C3O)NC2=O)N1 (stereo not drawn) [Example 279a] (cyclo(GFY[ξEnduracididine(βξ-OH,4'ξ)][X1]S); configuration not given here)" tgt="Staphylococcus sp." measurement_name="MIC Staphylococcus aureus (GC 3051)" value_qualifier=> recorded_measurement=64
